Experiment: soluble fraction after stress (log2 fold change); higher = more stays soluble; pooled small domains, quantitative proteomics;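 note: 20 min heating vs room temperature control held 20 min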
Conditions: stress: 75 degC
value-kind: soluble fraction (log2)
One number for each entry.

HMSSIHQDAKQQLHEYIRTYIQPLMRAGKQVTVWDIIGHVTIRKPKLVQKIGTQQLINMVQDLLE : -0.624

Please give soluble fraction (log2), item by item, for the list that follows.
1. HMGFVATRSRKFLPFSEARAITRGLGFSNQKDYKEWIKGNGNELLLPFNPWRTYGDSGWKGWKDFLGTDKA
2. HMEAPNELLVPEGARPARADRVLAAAFPEHSRTALQRAFDAGLVRRANLVLSRDTAVAGGDRIAFSLPAV
3. HMAPRQDIAYYTVKPGDTVLAIAEKFGLQPETLMWSNSIIEQNPDRLSIGDELRILPVDGVLHVVK
4. HMKETERKILQAVLGLPLKYRDVIHLFYYEEMSVKEIAEVLHRQESTVTSQLTRARGILKKNL
5. HMRQQQISAAIKTSVNGTVDYYVRRLPERDPRGDFLEVWDDLQKVIQAAHGIQVSHDELYEYFRRLK

1. -1.39
2. 0.0788
3. 0.129
4. 0.264
5. -0.833

Please give soluble fraction (log2), item by item, for the list that follows.
1. HMPRYSGMFAAWLHKALARMGKSMSDSARSAFTERVELDYSSANNELQKLSLLVGDRKVITEADVMRAIG
2. HMITASNYFIEVERIGIETLPETLKKGHDLVVKSTSNGTNWANYQTSEGIKKVIDLYFQKLNEYANTV
3. HMTAPDDFIRAEVTASGKNGMAVAELSKRVRTRFKSFKVRELGYPHLAGYLADVEGVRVYKQGRENWVAK
4. HMKSLPQKLLAYLESQGLTRDEAGEFVKQGLKITSNDVDQIQLLLANTEVIDIKLQEFIAQK
5. HMEITTLTGVLGAGRLDSALAAALPQYSRARIQALISDAALRINGQVVADAGSKKMSGQTFELNIPAPVP
6. HMDGQPLSERQQEILRWVAEGLSNREIGERLNITPNTVRDHLSEVMRRLEVSNRTSAVSTAFHLGLLP
7. HMVLTYYSVLGVKTDATTEEIKSTYKQLAIRNHPDRGGSEEVMKMINLAAEILSDPKSRKEYDLSLDA

1: -0.86; 2: -1.83; 3: -0.899; 4: 0.0281; 5: -0.594; 6: -0.0654; 7: -2.06

Please give soluble fraction (log2), item by item, for the list that follows.
1. HMAQLSDDEQAIIDTITRRGDATMSELIASVNVSTPRLMSMLIDMEFRSLITALPGGRYQIRLIN
2. HMAKRKYKSFKDVAEFAQKLGIKSSTEWWAYVRGHEIPSDIPKDPSTYYKKEWTTWGDFLGTGYVSSA
3. HMVQDDDPNSVAKFIDQVIESNPEQVEQYRSGKEKVFNFFLGQTMRLSKGKANPDLVSELLKEKLS
4. HMEAVIENAAIIKQNSGGYAVRATVNGVDLGMKPVERATALLYFSLTDKLEKDRLLSHTLQKTYGDLSA

1. -1.54
2. -0.513
3. 0.0209
4. -0.212

----------
Assay: soluble fraction after stress (log2 fold change); higher = more stays soluble; pooled small domains, quantitative proteomics
Conditions: stress: 75 degC
Record form. Attribute: soluble fraction (log2). Fill in for each entry.
Answers are plain numbers.

HMNEQKVSSLLTPRQLAFIDEYLIDFNGAQAAIRAGYSHKTAGPQAARLLVNVNISRMIAERIEARNK : -2.5
HMEHETTQLELNAPGQRLDAALALALPDTSRAQIQQWIKQGLVTDQAGTALLQASLKLKSPLNVVLQRPI : -0.215
HMSSAYLTVRGIDIDVIYKDIKNLHIAVYPPFGRVRVAAPSHLDDDQVRLAVIQRLTWIKRQRERLRST : -1.62
HMNDVLVGAIPESASGSRLDKVMPSVFPPYSRSQLQVWLKQGRILMGNGIPSPRLIVSGGEVLSLVVPELP : -1.02
HMRKEEFIRELVLELKQNVSEQVILEQKRFYEEYILTEVRGGKTEEEVIASLSEPRLLAKSIIDAAEAGGD : -1.3
HMNTLTKEDIQKAIDVIPIDFKSVVILNLVEGFSYKETAEILEIPIGTVMSRLHRGRKILQKLLWEYSSSK : -1.4
HMQETIDVAALRVGMFVHLDLGWLAHPFPLSSFRISSEDQISTIRALGLKRVRWSSQHSELG : -1.29
HMFTEPQKLVKRILNMLGHRYDDASIQARSDFQASNNYHKVQVKKKRESMEEYTAWLEEMYDAYRIN : -1.49

Please give soluble fraction (log2), item by item, for the list that follows.
1. HMDPPQEVWDLTRSYLDSMNRPVHGHKSPQETYLRQVKSHRLPATALWDYFMAQRFHAVHATSESAA
2. HMSPAPVSVDHLAFPTRDLEATDHFYSKVVGATLVHAESGYSPSWKSDYLLITYALPDGTRLSFFDWP
3. HMPDFAENAVYGKQREDSLYAHAYKHFQLGDTTTVRAAEHLSAEIYPLGQHRPKFMFLNAVTR
4. HMNLPTSGVDALTPAERRVARMAGDGQSNREIAQTLFVTRKTVEIHLTSVYRKLGIASRAELSARL
5. HMEIPMRDKLKTYIDYLFAGAPQTAATAETKAEILQNTLDKYDDLIAEGKTPEAAYSLAVSGIGDLGDF
6. HMSGPVITEERNIANALISGLANMKETPTREQVERKAQQIAELFGYTGDLRNIITEAMISVDT
7. HMLPISGDDRDALDMAALILKQYDSLPILKEFANVVTKLQTVLDGVVSNSIEARRQMIQFEE
8. HMSMSVLFSELDQKDAGVIVEKLKERKIPYELQSGGSAIMVPANVLHETRLQLAAEGLPQSS

-0.127
0.105
0.309
-2.68
-0.179
-0.0406
0.0649
-0.0383

Complete the entry with soluble fraction (log2) for `HMGKNIQAIRYKNNMTQDQVVAKLNLMGISITKSTYAKLETNRMNIKASELVALAKLFHTDINAFFSG` -3.12
